experimentSummary: TLR3 IRF3 reporter activation blockers – cell-based, poly I:C stimulus, luciferase, 10K MLSCN set, primary screen (AID 602277)
conditions: HEK293-TLR3 RL24 IRF3 luciferase reporter, at 10 µM, stronger effect = higher value
Activity calls are given as the source filed them.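 How the source made its calls: active means inhibition of the reporter signal at or above 50%; inactive means inhibition below 50%.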
Each record here notes measured inhibition.

> print(dat)
                                   compound  experimentalendpoint                val
1      COc1cccc(OC)c1C(=O)Nc1cccc(C(C)=O)c1            inhibition   27.4% (inactive)
2             CCc1ccc(NS(=O)(=O)c2cccs2)cc1            inhibition  -9.13% (inactive)
3  CCC1Oc2ccccc2N(CC(=O)Nc2ccc(OC)cc2OC)C1=O (stereo not drawn)            inhibition   4.28% (inactive)
4  O=C(CSC1=NC(=O)C(Cc2ccccc2)C(=O)N1)NC1CCCCC1 (stereo not drawn)            inhibition  -11.1% (inactive)

## Input Value lookup for inhibition; key = Cc1ccc(F)cc1NC(=O)Cc1nn(C)c(=O)c2ccccc12
## Output -19% (inactive)

## Input Name the reported inhibition value associated with the compound O=C(O)C1CC(=O)N(c2ccc(Br)cc2)C1 (stereo not drawn)
## Output 10% (inactive)

## Input Query (compound): COc1ccc(Cl)cc1NC(=O)COc1cccc(-n2cnnn2)c1 ; field requested: inhibition
## Output -12.1% (inactive)

----------
testedOn: Voltage-gated potassium channel subunit beta-2 (Rattus norvegicus)
experimentSummary: inhibitors of rat Kvbeta2 reductase activity – biochemical, NADPH fluorescence, primary screen (AID 622);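 further: slope of raw intensity against log time taken from 70 to 1610 s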
conditions: recombinant KvBeta, 4-cyanobenzaldehyde reduction, at 10 µM, stronger effect = higher value
experimentalEndpoint: fluorescence slope
Output spec: single numeric token, no unit.

Check out these entries, answers already filled in.
> print(dat)
                                   compound     val
1     CCOC(=O)C1CCN(C(=O)Nc2ccc3snnc3c2)CC1  -0.206
2  CCOC(=O)C(OC(=O)c1sc(=S)n(C)c1C)C(C)=O (stereo unspecified)  -0.553
3       N#Cc1cc2sc3nnc(-c4ccncc4)n3c2cc1C#N  -0.529
4  COc1ccc(CN2C(=O)C(O)(CC(=O)c3c(C)n[nH]c3C)c3ccccc32)cc1OC (stereo unspecified)  -0.481
5  CCC(Sc1nc2n[nH]c(C)c2c(=N)n1-c1cc(Cl)ccc1C)C(=O)N1CCOCC1 (stereo unspecified)  -0.593

## Input Field request: fluorescence slope | item: COc1cc(C2C(C#N)=C(N)Oc3cc(N)ccc32)cc(OC)c1OC (stereo unspecified)
## Output -0.434

## Input Value lookup for fluorescence slope; key = c1ccc2c(c1)ccc1nnc(-c3ccc4c(c3)OCO4)n12
## Output -0.58

----------
testedOn: Muscarinic acetylcholine receptor M4 (Homo sapiens) (UniProt P08173)
Sequence (P08173 whole entry, looked up): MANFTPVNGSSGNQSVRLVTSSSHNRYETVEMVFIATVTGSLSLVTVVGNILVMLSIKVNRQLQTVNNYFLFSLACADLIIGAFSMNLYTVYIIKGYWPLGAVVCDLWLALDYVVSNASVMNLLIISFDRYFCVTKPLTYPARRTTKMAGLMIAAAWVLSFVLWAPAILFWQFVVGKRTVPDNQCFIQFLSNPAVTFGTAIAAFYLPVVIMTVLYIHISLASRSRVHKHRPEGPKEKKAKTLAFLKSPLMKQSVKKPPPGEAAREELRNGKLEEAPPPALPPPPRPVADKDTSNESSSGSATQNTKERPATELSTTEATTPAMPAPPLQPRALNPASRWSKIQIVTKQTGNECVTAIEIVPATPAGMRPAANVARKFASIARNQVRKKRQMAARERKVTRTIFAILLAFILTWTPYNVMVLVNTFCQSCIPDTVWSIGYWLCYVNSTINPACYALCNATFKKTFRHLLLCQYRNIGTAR
experimentSummary: M4-linked GIRK flux change, two-sided – cell-based, HEK293 M4/GIRK, thallium flux, BTC-AM, M4 allosteric agonist project, primary screen (AID 625);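 further: thallium influx through GIRK channels coupled to M4 in HEK293 cells with BTC-AM dye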
conditions: at 10 µM, actives lie on both sides
Simple rule here: fluorescence slope less than 0.006 is label 1, otherwise label 0.

> print(dat)
                                   compound  classification
1  CN1CCN(C(=O)c2cnn3c(C(F)F)cc(C4CC4)nc23)CC1         label 1
2  Cc1ccc(S(=O)(=O)c2nc(-c3ccco3)oc2SCC(=O)NCC2CCCO2)cc1 (centres undefined)         label 1
3             CC(C)(C)NC(=O)Nc1ccccc1C(N)=O         label 1

## Input In plain terms, does Cc1cc(OC(=O)N2CCOCC2)cc(C)c1Cl come in under 0.006 for fluorescence slope?
## Output label 0

## Input Dear reviewer, please state whether O=C(NC1CCCC1)c1ccc(S(=O)(=O)N2CCCC2)cc1 has fluorescence slope strictly beneath 0.006.
## Output label 0

## Input Please let me know if Nc1c(Sc2ccccc2)c(=O)[nH]c(=O)n1Cc1ccccc1 shows fluorescence slope below 0.006.
## Output label 0

## Input Please indicate whether the reported fluorescence slope of O=C(COn1nnc2ccc(C(F)(F)F)cc21)Nc1nnc(-c2ccccc2)o1 is strictly below 0.006.
## Output label 1

----------
testedOn: Voltage-gated potassium channel subunit beta-2 (Rattus norvegicus) (UniProt P62483)
Sequence (P62483 whole entry, looked up): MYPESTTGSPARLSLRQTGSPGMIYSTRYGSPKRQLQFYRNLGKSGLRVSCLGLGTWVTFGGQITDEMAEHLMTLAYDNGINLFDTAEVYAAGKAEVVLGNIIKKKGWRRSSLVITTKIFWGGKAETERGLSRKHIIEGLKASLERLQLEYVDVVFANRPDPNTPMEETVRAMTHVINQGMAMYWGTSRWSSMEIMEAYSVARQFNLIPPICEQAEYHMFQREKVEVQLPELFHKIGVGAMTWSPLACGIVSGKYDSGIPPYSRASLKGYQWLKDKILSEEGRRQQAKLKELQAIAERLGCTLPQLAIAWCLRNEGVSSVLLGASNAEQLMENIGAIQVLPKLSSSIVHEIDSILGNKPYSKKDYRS
experimentSummary: enhancers of rat Kvbeta2 NADPH turnover – biochemical, NADPH fluorescence, primary screen (AID 623);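 further: fluorescence intensity change per second fitted from 20 to 320 s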
conditions: Recombinant KvBeta, NADPH fluorescence decrease slope, 10 min; at 10 µM; stronger effect = lower value
Each entry below carries its recorded NADPH fluorescence slope.
Keep the answer to the number alone.

Below, each entry is followed by its recorded NADPH fluorescence slope result.
> print(dat)
                                   molecule      experimentalendpoint       val
1  O=C(CN1C(=O)c2ccccc2C1=O)NCC1COc2ccccc2O1 (stereo not drawn)  NADPH fluorescence slope   9.2e-05
2  O=C(NCC1CCCCN1)c1cc(OCC(F)(F)F)ccc1OCC(F)(F)F (stereo not drawn)  NADPH fluorescence slope  -5.3e-05
3         COC(=O)c1c(N)nc(C)n1-c1ccc(OC)cc1  NADPH fluorescence slope     3e-05

## Input Request: NADPH fluorescence slope, test system Voltage-gated potassium channel subunit beta-2 (Rattus norvegicus) (UniProt P62483), entry Cc1cccc2cc(C(c3nnnn3C(C)(C)C)N3CCN(C(=O)c4ccco4)CC3)c(=O)[nH]c12 (stereo not drawn)
## Output -5.7e-05

## Input # value lookup — system Voltage-gated potassium channel subunit beta-2 (Rattus norvegicus) (UniProt P62483), readout NADPH fluorescence slope, item CCOCCn1cnc2sc(C(=O)NCC(=O)OCC)c(C)c2c1=O
## Output -2.6e-05

## Input // map O=C1CC2CS(=O)(=O)CC2N1c1ccc(Oc2ccccc2)cc1 (stereo not drawn) to recorded NADPH fluorescence slope (system: Voltage-gated potassium channel subunit beta-2 (Rattus norvegicus) (UniProt P62483))
## Output -8.8e-05

----------
experimentSummary: endothelial E-selectin expression blockers – imaging, HUVEC, immunofluorescence, MLSMR starter and 10KST1 sets, primary screen (AID 487);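 on nuclei count: 100% = median nuclei count of all wells on the same plate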
conditions: HUVEC TNFalpha-induced E-selectin immunofluorescence imaging, at 2 µM; measured here: cell number, toxicity
experimentalEndpoint: nuclei count (%)
Give the value in % but do not write % after it.

See these solved cases before continuing.
> print(dat)
                                   compound  val
1  O=C(c1ccco1)N1CCN(c2c(-c3ccccc3)c3cc(Cl)ccc3[nH]c2=O)CC1  118
2  CCOC(=O)c1ccc(NC(=O)CCc2nc(-c3ccc(C)cc3)no2)cc1  116

Now for a further compound.
## Input I have this compound here, Cc1nc2sc3c(c2c(=O)o1)CCC3 , and I need its recorded nuclei count.
## Output 93.8

----------
experimentSummary: endothelial E-selectin expression blockers – imaging, HUVEC, immunofluorescence, MLSMR starter and 10KST1 sets, primary screen (AID 487);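 on inhibition: signal is fraction of cell area covered by stained E-selectin grains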
conditions: HUVEC TNFalpha-induced E-selectin immunofluorescence imaging, at 2 µM; stronger effect = higher value
Kind request: treat -20% as inclusive, so inhibition at -20% or higher is Yes, anything lower is No.

> print(dat)
                   molecule  classification
1  Cc1nc2sc(C)c(C)c2c(=O)o1              No

## Input Is the recorded value of inhibition equal to or greater than -20% for this molecule? CCn1c(=S)sc2nc(C)sc21
## Output No

## Input Tell me whether inhibition is at least -20% here: Cc1ccc(CSc2nc3c(c(=O)[nH]2)C(c2ccncc2)C2=C(CCCC2=O)N3)cc1 (stereo unspecified)
## Output Yes

## Input Reported inhibition at or above -20%? Cc1cc(C)nc(N2CCCC(C(=O)Nc3ccc4c(c3)OCO4)C2)n1 (stereo unspecified)
## Output Yes

## Input Does CCc1ccc(NS(=O)(=O)c2cccs2)cc1 have a reported inhibition of at least -20%?
## Output No

## Input Item Cc1ccc(N2CN=c3s/c(=C\c4cccnc4)c(=O)n3C2)cc1 with inhibition of -20% or above?
## Output Yes

----------
experimentSummary: endothelial E-selectin expression blockers – imaging, HUVEC, immunofluorescence, MLSMR starter and 10KST1 sets, primary screen (AID 487);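 on nuclei count: 100% = median nuclei count of all wells on the same plate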
conditions: HUVEC TNFalpha-induced E-selectin immunofluorescence imaging, at 2 µM; measured here: cell number, toxicity
// reported nuclei count per item
# unit: % | format: bare number

Known nuclei count results, listed for orientation:
> print(dat)
                                   compound  experimentalendpoint  unitabbreviation   val
1  CN1CCN(C(=O)c2ccccc2N(Cc2ccccc2)S(C)(=O)=O)CC1          nuclei count                 %   110
2    CCc1nc(SCC(=O)Nc2nccs2)c2oc3ccccc3c2n1          nuclei count                 %   116
3  COc1ccc(CN(C)CC(=O)c2c(N)n(Cc3ccccc3)c(=O)n(C)c2=O)c(OC)c1          nuclei count                 %  98.3
4  COc1ccccc1C(O)P(=O)(OC(C)C)c1ccc(N(C)C)cc1 (stereo not given)          nuclei count                 %   106

Consider the record given below.
## Input Look up nuclei count for this compound: N#Cc1c(N)n(CCNC(=O)c2cccs2)c2nc3ccccc3nc12
## Output 105

src = PubChem BioAssay
